- Tested on: CAKI-1 renal
- assay_protocol: NCI tumour cell line growth inhibition, 48 h
Reported values of TGI for individual entries
recorded_endpoint: TGI

compound	tgt	recorded_endpoint	assay_value
CC/C(Cc1ccccc1)=C(/c1ccc(O)cc1)c1ccc(OCCN2CCCC2)cc1	CAKI-1 renal	TGI	3.52 µM
O=C([CH-]C(=O)c1ccccc1)c1ccccc1.O=C([CH-]C(=O)c1ccccc1)c1ccccc1.O=C([CH-]C(=O)c1ccccc1)c1ccccc1.[Cl-].[Zr+4]	CAKI-1 renal	TGI	63.8 µM
CCOC(=O)/C=C(/C(=O)OCC)n1ccc(=O)n(Cc2cnnn2CCCCOC(C)=O)c1=O	CAKI-1 renal	TGI	76.3 µM
Cc1cc(C)nc(NS(=O)(=O)c2ccc(NC(=O)c3cc([N+](=O)[O-])cc([N+](=O)[O-])c3)cc2)n1	CAKI-1 renal	TGI	> 100 µM
COc1cccc2cc(C(=O)NC34CC5CC(CC(C5)C3)C4)c(=N)oc12	CAKI-1 renal	TGI	> 100 µM
O=c1[nH]c(=O)n(C2CC(O)C(CO)O2)cc1COCC(F)(F)F (centres undefined)	CAKI-1 renal	TGI	> 100 µM
CC(CC[C@@]1(O)OC2C[C@H]3[C@@H]4CC[C@H]5CC(OC6OC(CO)C(OC7OC(CO)C(O)C(OC8OCC(O)C(O)C8O)C7OC7OC(CO)C(O)C(O)C7O)C(O)C6O)[C@H](O)CC5(C)[C@H]4CCC3(C)C2[C@@H]1C)COC1OC(CO)C(O)C(O)C1O (some centres undefined)	CAKI-1 renal	TGI	43.8 µM
COc1cc(OC)c(OC)cc1/C=C/c1cc[n+](C)c2ccccc12	CAKI-1 renal	TGI	> 100 µM
COC(=O)N/N=C(\C)C(CN(C)C)C(c1ccccc1)c1c(O)c2ccccc2oc1=O (centres undefined)	CAKI-1 renal	TGI	> 100 µM

* * *

- Test system: CCRF-CEM leukemia
- assay_protocol: NCI tumour cell line growth inhibition, 48 h
recorded_endpoint: TGI (µM)

molecule	modifier	assay_value
Cc1c(C)c2c(c(C)c1OCC(=O)O)CC[C@@](C)(CCC[C@@H](C)CCC[C@@H](C)CCCC(C)C)O2	=	189
O=c1[nH]c(=O)n([C@@H]2O[C@H](CO)[C@@H](O)[C@@H]2F)cc1I	=	66.8
CC1(C)OC2OC(COC(=O)c3ccc(C#N)cc3)C3OC(C)(C)OC3C2O1 (stereo not given)	>	75
CCOc1ccc(C(C)=O)cc1NC(=O)c1cccc(-c2nnn(CC)n2)c1	>	100
CCCCN1C(=O)/C(=c2\sc3n(c2=O)C2C(NN=3)N(CC)C(=O)N2CC)c2ccccc21 (stereo not given)	>	100
O=C1C(Cl)=C(NCCF)C(=O)c2ncccc21	=	0.806
O=c1c2c3c(sc2nc2n1N=CN(c1ccc(F)cc1)C2)CCCC3	>	100
NCCNC(=O)CN(CC(=O)O)C1CCCCC1N(CC(=O)O)CC(=O)O (stereo not given)	>	100
Oc1c(O)c(Cl)c(Cl)c(Cl)c1Cl	=	27.7
C/C(CC(=O)Nc1ccc(NC(=O)C/C(C)=N\NC(N)=O)cc1)=N/NC(N)=O	>	100

* * *

- Tested on: HCT-116 colon
- assay_protocol: NCI tumour cell line growth inhibition, 48 h; in the data active = GI50 below about 0.43 µM; inactive = the rest
Possible outcomes: label 1 for active, label 0 for inactive

compound	label_value
CCC[CH2][Sn]([CH2]CCC)([O]C(=O)c1cccc(F)c1F)[O]C(=O)c1cccc(F)c1F	label 0
CC/C(Cc1ccccc1)=C(/c1ccc(O)cc1)c1ccc(OCCN2CCCC2)cc1	label 0
Cc1nc(Sc2nc3ccc([N+](=O)[O-])cc3s2)sc1C	label 0
CCN(CC)c1ccc(/C=N/NC(=O)CSc2nc3ccccc3c(=O)n2Cc2ccc(S(N)(=O)=O)cc2)c(O)c1	label 1
Nc1nc2c(ccc3ccccc32)s1	label 0
CCc1nn2ncccc2c1-c1ccnc(NC2CC2)n1	label 0
CCC[CH2][Sn]([CH2]CCC)([CH2]CCC)[O]C(=O)C(OC)c1ccccc1 (stereo unspecified)	label 1
CN1CCN(CCCOc2cccc3nc(Nc4ccc(F)c(F)c4)ccc23)CC1	label 0
COc1ccccc1C1C(C#N)=C(N)Oc2cc(O)ccc21 (stereo unspecified)	label 0
CCN(CC)c1ccc2nc3ccc(N=Nc4ccc(O)cc4)cc3[n+](-c3ccccc3)c2c1	label 0
CC(C)(C)c1nc(-c2cccc(NS(=O)(=O)c3c(F)cccc3F)c2F)c(-c2ccnc(N)n2)s1	label 0
